src = PubChem BioAssay AID1259407

- System: CCRIS mutagenicity, Ames/micronucleus/aberration tests
- Test Summary: CCRIS mutagenicity studies
- Measurement Setup: Test System: AMES SALMONELLA TYPHIMURIUM; Strain/Indicator: TA97; Metabolic Activation: NONE; Method: STANDARD PLATE
Active and inactive are the calls of the source. How the calls were made is not given here.
Respond using exactly one of the listed classes: True (active), False (inactive)

* COP(=O)(OC)C(O)C(Cl)(Cl)Cl (stereo unspecified) | False
* COC1=CC(=O)c2c(nc(C)c3c2[nH]c2ccccc23)C1=O | True

In this assay, the call recorded for ClC(Cl)C(Cl)Cl was what?
True

// outcome(item) with item = Br/C=C/Br
False

Each compound tested received a call. Report the one for O=C([O-])c1cccnc1Nc1cccc(C(F)(F)F)c1.O=C([O-])c1cccnc1Nc1cccc(C(F)(F)F)c1.OCc1cccnc1.OCc1cccnc1.[Cu+2] .
False

For this compound, state the assay outcome: O=C(O)CC(O)(CC(=O)O)C(=O)O
False

----------
- Tested on: CCRIS mutagenicity, Ames/micronucleus/aberration tests
- Test Summary: CCRIS mutagenicity studies
- Measurement Setup: Test System: AMES SALMONELLA TYPHIMURIUM; Strain/Indicator: TA98; Metabolic Activation: RAT LIVER S-9, PHENOBARBITAL AND BETA-NAPHTHOFLAVONE; Method: PREINCUBATION
Activity calls are given as the source filed them. How the calls were made is not given here.
Result category, one only: true (active), false (inactive)

Some solved entries appear below for comparison.
- O=C(O)[C@H](O)[C@@H](O)C(=O)O: false
- C=C(C)C(=O)OCCCC: false
- CCCBr: false
- CC(Br)CBr (stereo not given): false

Now look at this one.
Recorded test outcome, item O=C1CCCCCCCCCCCCCCO1
false

----------
- Test system: CCRIS mutagenicity, Ames/micronucleus/aberration tests
- Test Summary: CCRIS mutagenicity studies
- Measurement Setup: Test System: AMES SALMONELLA TYPHIMURIUM; Strain/Indicator: YG1026; Metabolic Activation: NONE; Method: PREINCUBATION
Calls of active or inactive are those of the source. The rule behind the calls is not given here.
One label from this list, please: active, inactive

Some solved entries appear below for comparison.
- O=[N+]([O-])c1ccc(Nc2ncnc3nc[nH]c23)cc1: inactive
- O=[N+]([O-])c1ccc(CNc2ncnc3nc[nH]c23)cc1: inactive
- Nc1nc(-c2ccc([N+](=O)[O-])cc2)nc2c1ncn2-c1ccc([N+](=O)[O-])cc1: active

Now for a further molecule.
Given Nc1ncnc2nc(-c3ccc([N+](=O)[O-])cc3)[nH]c12 , state the outcome it received in this test.
active

----------
- Tested on: CCRIS mutagenicity, Ames/micronucleus/aberration tests
- Test Summary: CCRIS mutagenicity studies
- Measurement Setup: Test System: AMES SALMONELLA TYPHIMURIUM; Strain/Indicator: TA1537; Metabolic Activation: RAT, LIVER, S-9, AROCLOR 1254; Method: PREINCUBATION
The source made the active and inactive calls. How the calls were made is not given here.
Property: mutagenic call

Here is how some compounds turned out for mutagenic call.
- Oc1ccccc1O: inactive; negative
- ClC(Cl)(Cl)C(Cl)(Cl)Cl: inactive; negative
- COc1ccc(OC)cc1: inactive; negative
- CCCCCC[C@@H](O)C/C=C\CCCCCCCC(=O)O: inactive; negative
- NS(=O)(=O)c1cc2c(cc1Cl)NCNS2(=O)=O: inactive; negative
- Brc1c(Br)c(Br)c(Br)c(Br)c1Br: inactive; negative

Record Oc1cc(O)c2cc(O)c(-c3cc(O)c(O)c(O)c3)[o+]c2c1 , field mutagenic call: inactive; negative

// field: mutagenic call; key: CCCCOB(OCCCC)OCCCC ; value = inactive; negative

The compound listed as C[C@]12CCC(=O)C=C1[C@@H]1C[C@@H]1[C@H]1[C@@H]3[C@@H]4C[C@@H]4[C@@]4(CCC(=O)O4)[C@@]3(C)CC[C@@H]12 shows mutagenic call equal to inactive; negative

Entry C[C@]12CC[C@@H]3c4ccc(O)cc4CC[C@H]3[C@@]13CC[C@]2(O)[C@H](O)C3 ; mutagenic call = inactive; negative

Data point: Brc1c(Br)c(Br)c(Oc2c(Br)c(Br)c(Br)c(Br)c2Br)c(Br)c1Br ; mutagenic call = inactive; negative

The compound listed as O=C1CCc2ccccc2O1 shows mutagenic call equal to inactive; negative

// mutagenic call value for CC(C)(C#N)N=NC(C)(C)C#N : inactive; negative

Input Nc1nc(N)nc(N)n1 . Output mutagenic call: inactive; negative

mutagenic call for O=c1[nH]c(=O)n([C@H]2C[C@H](O)[C@@H](CO)O2)cc1CCCl is inactive; negative

Entry under test: CC(I)C1OCC(CO)O1 (centres undefined) . Its mutagenic call was inactive; negative

mutagenic call reading for C=C(C)[C@H]1CC=C(C)CC1 : inactive; negative

The compound C(=C/c1ccccc1)/c1ccccc1 showed mutagenic call equal to inactive; negative

mutagenic call measured on CN(C)c1ccc([C@H]2C[C@]3(C)[C@@H](CC[C@]3(O)CCCO)[C@@H]3CCC4=CC(=O)CCC4=C32)cc1 = inactive; negative

# mutagenic call of CCOP(=S)(OCC)Oc1nc(Cl)c(Cl)cc1Cl = inactive; negative

Recorded result, Cc1cc(=O)oc2cc(O)cc(O)c12 , mutagenic call: inactive; negative

Lab book: mutagenic call of CC(=O)NNC(=O)c1ccccn1 noted as inactive; negative

Quick note, mutagenic call for O=c1[nH]c(=O)n([C@H]2C[C@H](O)[C@@H](CO)O2)cc1CCCCl landed at inactive; negative
